Assay: Unbound fraction / plasma protein binding
Format: in vitro ADME, human
Settings: human, plasma, oral, 50 mg, participants with hepatic impairment; read-out: unbound fraction fu %

>  <COMPOUND STRUCTURE>
CCn1c(=O)c(-c2cc(NC(=O)Nc3ccccc3)c(F)cc2Br)cc2cnc(N)cc21

>  <fraction unbound>
0.002 to 0.014

$$$$

----------
Experiment: Unbound fraction / plasma protein binding
Type: in vitro ADME, human
Details: human, plasma, oral, 50 mg, healthy participants; read-out: unbound fraction fu %

>  <COMPOUND STRUCTURE>
CCn1c(=O)c(-c2cc(NC(=O)Nc3ccccc3)c(F)cc2Br)cc2cnc(N)cc21

>  <fraction unbound>
≤ 0.005

$$$$
